test: Caking test (Experiment 1-4); format: physicochemical; set-up: key: “Caked”, (+): Sample clearly keeps the hemispherical shape of the bottom of the tube even when placed on the plate; “Slightly caked”, (±): Sample slightly but distinguishably shows the hemispherical shape of the bottom of the tube; “Not caked” (−): Sample does not keep the hemispherical shape of the bottom of the tube; settings: 1 g in 14-ml polypropylene tube, 50° C., 24 hours, macroscopic observation
Quantity Kind: Caking

O=C1O[C@H]([C@@H](O)CO)C(O)=C1O[C@H]1O[C@H](CO)[C@@H](O)[C@H](O)[C@H]1O [Test sample 6, 2-O-α-D-glucosyl-L-ascorbic acid]	−
O=C1O[C@H]([C@@H](O)CO)C(O)=C1O[C@H]1O[C@H](CO)[C@@H](O)[C@H](O)[C@H]1O [Test sample 8, 2-O-α-D-glucosyl-L-ascorbic acid]	±
O=C1O[C@H]([C@@H](O)CO)C(O)=C1O[C@H]1O[C@H](CO)[C@@H](O)[C@H](O)[C@H]1O [Example 6, 2-O-α-D-glucosyl-L-ascorbic acid]	−
O=C1O[C@H]([C@@H](O)CO)C(O)=C1O[C@H]1O[C@H](CO)[C@@H](O)[C@H](O)[C@H]1O [Test sample 5, 2-O-α-D-glucosyl-L-ascorbic acid]	−

Each recorded value in this set is attributed to patent US9265781B2.
